Data origin: PubChem BioAssay AID720541

- SYSTEM: C-terminal-binding protein 1 (Homo sapiens)
- TEST_DETAILS: qHTS for Inhibitors of the Phosphatase Activity of Eya2: Carboxyl-terminal binding protein (CtBP) Counterscreen for Cherry-picked Compounds; note: nearly all actives have a fitted effect of over 65% in size
- MEASUREMENT_CONDITIONS: purified protein-protein binding, AlphaScreen, 3 h; series mostly up to 46.1 µM
- Text: The Eya protein family is an essential co-activator of the Six1 transcription factor. Six1 is a developmental gene that is abnormally re-expressed in a large percentage of breast cancers. This over-expression plays a causal role in the initiation and metastatic development of breast cancers. […] A 1536 well format, fluorescence based qHTS assay was developed and used to target the phosphatase activity of Eya2 (AID 488837). […]
Out of some 1,300 compounds screened, about 420 (32%) were called active. Not shown: some 32% with an inconclusive outcome. Calls come from the whole dose curve; as a rule, active = well fitted inhibition curve with a large enough effect; inconclusive = small, poorly fitted or top-dose-only effect; inactive = no such curve, though single readings can be large or run the other way. This is one part of the list.
Your response should consist of one outcome taken from active, inactive

Previously resolved entries follow.
> print(dat)
                                   molecule  category.label
1  Cc1nn(-c2ccccc2)c2c1C(c1cccnc1)N1C=C(S(=O)(=O)N3CCCCC3)C=CC1=N2 (stereo not drawn)        inactive
2  O=C(NN1C(=O)/C(=C/C=C/c2ccco2)SC1=S)c1ccncc1          active

Pending molecule:
Hi team, can someone confirm the assay call for Cc1cc(C)c(OCCCCN(C)Cc2ccccc2)c(C)c1 ?
inactive

* * *

- SYSTEM: C-terminal-binding protein 1 (Homo sapiens) (UniProt Q13363)
- TEST_DETAILS: qHTS for Inhibitors of the Phosphatase Activity of Eya2: Carboxyl-terminal binding protein (CtBP) Counterscreen for Cherry-picked Compounds; note: nearly all actives have a fitted effect of over 65% in size
- MEASUREMENT_CONDITIONS: purified protein-protein binding, AlphaScreen, 3 h; series mostly up to 46.1 µM
Out of some 1,300 compounds screened, about 420 (32%) were called active. Roughly 32% stayed inconclusive and do not appear here. Calls come from the whole dose curve; as a rule, active = well fitted inhibition curve with a large enough effect; inconclusive = small, poorly fitted or top-dose-only effect; inactive = no such curve, though single readings can be large or run the other way. The list shows a part of the results.
Your response should consist of one outcome taken from 1.0 (active), 0.0 (inactive)

Previously resolved entries follow.
> print(dat)
                                   molecule  category.label
1  Cc1nn(C)c(Cl)c1CN1CCCC(CO)(Cc2cccc(Cl)c2)C1 (stereo not drawn)             0.0
2                CCN(CC)CCNC(=O)c1ccc(N)cc1             0.0

Pending molecule:
Hi team, can someone confirm the assay call for O=C1c2ccccc2C(=O)c2c(Nc3ccc(CCO)cc3)ccc(O)c21 ?
1.0

* * *

- SYSTEM: C-terminal-binding protein 1 (Homo sapiens)
- TEST_DETAILS: qHTS for Inhibitors of the Phosphatase Activity of Eya2: Carboxyl-terminal binding protein (CtBP) Counterscreen for Cherry-picked Compounds; note: nearly all actives have a fitted effect of over 65% in size
- MEASUREMENT_CONDITIONS: purified protein-protein binding, AlphaScreen, 3 h; series mostly up to 46.1 µM
Out of some 1,300 compounds screened, about 420 (32%) were called active. About 32% were inconclusive and are not listed. Calls come from the whole dose curve; as a rule, active = well fitted inhibition curve with a large enough effect; inconclusive = small, poorly fitted or top-dose-only effect; inactive = no such curve, though single readings can be large or run the other way. The list shows a part of the results.
Your response should consist of one outcome taken from true = active, false = inactive

> print(dat)
                                   molecule  category.label
1  CCOC(=O)Cc1nnc(NC(=O)CSc2nnc3c4ccccc4n(C)c3n2)s1            true
2  Cc1ccc(C(=O)N2CCN(c3ccc(NC(=S)NC(=O)c4cccs4)cc3)CC2)cc1           false
3  OC(c1ccc(Cl)cc1)c1nccc2ccccc12 (stereo not given)           false
4     COc1ccc2c(c1)C=C/C2=C\c1ccc(N(C)C)cc1            true
5  Cc1nc(NC(=O)CSc2nnc(-c3ccccc3)c(-c3ccccc3)n2)c(Cl)cc1Cl           false

Hi team, can someone confirm the assay call for Oc1c(C(c2ccc(Cl)cc2)N2CCCC2)cc(Cl)c2cccnc12 (stereo not given) ?
true

Hi team, can someone confirm the assay call for O=C(NC(=S)Nc1ccccc1N1CCCCC1)c1ccco1 ?
false

Hi team, can someone confirm the assay call for CCCC(=O)Nc1ccc(NC(=S)NC(=O)c2cccs2)cc1 ?
false

Hi team, can someone confirm the assay call for Cn1c(=O)c2c(ncn2CC(=O)Nc2cccc(S(=O)(=O)Nc3ccccc3F)c2)n(C)c1=O ?
true

Hi team, can someone confirm the assay call for CCc1ccc2nc3nc(C)cc(C)c3c(N)c2c1 ?
true
